# Tested on: Zea mays (ZEAMX)
# Assay type: in vivo
# Run conditions: pre-emergence, 320 g/ha, crop plant compatibility, in comparison to untreated controls

| Compound | Pre-emergence action against ZEAMX in %, % |
| --- | --- |
| COC(=O)[C@H](C)NC(=O)COc1nn(-c2ccnc(F)c2)c(-c2ccc(F)nc2)c1Br | 10 |
| O=C(O)C1CCN(C(=O)COc2nn(-c3ccccn3)c(-c3cncc(F)c3)c2Br)C1 (racemic) | 10 |
| CCOC(=O)COc1nn(-c2ccccn2)c(-c2ccc(F)nc2)c1C1CC1 | 0 |
| CCOC(=O)C1CCN(C(=O)COc2nn(-c3ccccn3)c(-c3ccc(F)nc3)c2Br)CC1 | 10 |
| C[C@@H](Oc1nn(-c2ncccc2F)c(-c2ccc(F)nc2)c1Br)C(=O)O | 0 |
| COC(=O)CN(C)C(=O)COc1nn(-c2ccnc(Cl)c2)c(-c2ccc(F)nc2)c1Br | 20 |
| COC(=O)C1CCN(C(=O)COc2nn(-c3ccccn3)c(-c3ccc(F)nc3)c2Br)C1 (stereo not shown) | 10 |
| O=C(CSc1nn(-c2ccccn2)c(-c2cncc(F)c2)c1Br)NS(=O)(=O)c1ccccc1 | 0 |
| CSCCOC(=O)COc1nn(-c2ccccn2)c(-c2ccc(F)nc2)c1Br | 0 |
| COc1cccnc1-n1nc(OCC(=O)O)c(Br)c1-c1ccc(F)nc1 | 0 |
| CC(=O)CNC(=O)COc1nn(-c2ccnc(F)c2)c(-c2ccc(F)nc2)c1Br | 10 |
| COC(=O)C=CC(C)NC(=O)COc1nn(-c2ccccn2)c(-c2ccc(F)nc2)c1Br (stereo not shown) | 10 |
| COC(=O)C1CCCN(C(=O)COc2nn(-c3ccccn3)c(-c3ccc(F)nc3)c2Br)C1 (stereo not shown) | 10 |
| CCOC(=O)COc1nn(-c2ncccc2OC)c(-c2ccc(F)nc2)c1I | 0 |
| O=C(O)COc1nn(-c2ccncc2)c(-c2ccc(F)nc2)c1Br | 0 |
| CCOC(=O)COc1nn(-c2ccnc(F)c2)c(-c2ccc(F)nc2)c1Br | 20 |
| O=C(O)COc1nn(-c2ccccn2)c(-c2ccc(F)nc2)c1F | 0 |
| CCOC(=O)COc1nn(-c2ncccc2C(F)(F)F)c(-c2ccc(F)nc2)c1Cl | 0 |
| CCOC(=O)COc1nn(-c2ccccn2)c(-c2ccc(Cl)nc2)c1Br | 20 |
| COC(=O)CCOC(=O)COc1nn(-c2ccnc(F)c2)c(-c2ccc(F)nc2)c1Br | 20 |
| O=C(COc1nn(-c2ccnc(Cl)c2)c(-c2ccc(F)nc2)c1Br)NS(=O)(=O)CC(F)(F)F | 0 |
| CCOC(=O)COc1nn(-c2ccc(Br)c(C)n2)c(-c2cncc(F)c2)c1Br | 20 |

* * *

# System: Viola tricolor (VIOTR)
# Measurement notes: Pre-emergence herbicidal action against VIOTR
# Format: in vivo
# Run conditions: dosage 80 g/ha
Parameter: Pre-emergence action against VIOTR in %

| Compound | Measured result |
| --- | --- |
| O=C(O)COc1nn(-c2ncccc2F)c(-c2ccc(F)nc2)c1Br [Example I-17] | 100% |
| COC(=O)[C@H](C)COC(=O)COc1nn(-c2ccccn2)c(-c2cncc(F)c2)c1Cl [Example I-74] | 90% |
| CCOC(=O)[C@@H](C)Oc1nn(-c2ncccc2F)c(-c2ccc(F)nc2)c1Br | 100% |
| CCOC(=O)COc1nn(-c2ccccn2)c(-c2ccc(F)nc2)c1Br | 100% |
| C[C@@H](Oc1nn(-c2nc(F)ccc2F)c(-c2cncc(F)c2)c1Br)C(=O)O | 100% |
| N#CCOC(=O)COc1nn(-c2ncccc2F)c(-c2ccc(F)nc2)c1Br | 90% |
| O=C(O)COc1nn(-c2ncccc2C(F)(F)F)c(-c2ccc(F)nc2)c1Br | 90% |
| O=C(O)COc1nn(-c2ccccn2)c(-c2ccnc(F)c2)c1Br | 100% |
| C[C@@H](Oc1nn(-c2ncccc2F)c(-c2ccc(F)nc2)c1Br)C(=O)OCc1ccccn1 | 100% |
| COC(=O)C(C)COC(=O)COc1nn(-c2ccccn2)c(-c2cncc(F)c2)c1Cl (stereo not shown) | 90% |
| CCOC(=O)CSc1nn(-c2ccccn2)c(-c2cncc(F)c2)c1Cl | 80% |
| COC(=O)COc1nn(-c2nc(F)ccc2F)c(-c2cncc(F)c2)c1Cl | 100% |
| CCOC(=O)COc1nn(-c2ncccc2C(F)(F)F)c(-c2cncc(F)c2)c1Br | 90% |
| COC(=O)C(C)COC(=O)C(C)Oc1nn(-c2ccccn2)c(-c2ccc(F)nc2)c1Cl (stereo not shown) | 90% |
| CCOC(=O)COc1nn(-c2nc(F)ccc2F)c(-c2cncc(F)c2)c1Br | 100% |
| COC(=O)[C@@H](C)NC(=O)COc1nn(-c2ccccn2)c(-c2ccnc(F)c2)c1Br | 90% |

* * *

# Test system: Oryza sativa (ORYSA)
# Assay type: in vivo
# Run conditions: 20 g/ha; crop plant compatibility, effect vs untreated controls
# Source text: Seeds of monocotyledonous and dicotyledonous weed plants and crop plants are placed in plastic or organic planting pots and covered with soil. […] After about 3 weeks, the effect of the preparations is scored visually in comparison with untreated controls as percentages. […]
# key: entry, value: Pre-emergence action against ORYSA
Parameter: Pre-emergence action against ORYSA

| Mol smiles | Parameter | Measured result |
| --- | --- | --- |
| CCOC(=O)COc1nn(-c2ccccn2)c(-c2ccc(F)nc2)c1Br | Pre-emergence action against ORYSA | 0% |
| COC(=O)COc1nn(-c2ncccc2F)c(-c2cncc(F)c2)c1Br | Pre-emergence action against ORYSA | 20% |
| COC(=O)[C@@H](C)Oc1nn(-c2ccc(F)cn2)c(-c2ccc(F)nc2)c1Br | Pre-emergence action against ORYSA | 0% |
| C[C@@H](Oc1nn(-c2ccc(F)cn2)c(-c2cncc(F)c2)c1Br)C(=O)O | Pre-emergence action against ORYSA | 0% |
| O=C(O)COc1nn(-c2ncccc2F)c(-c2ccc(F)nc2)c1Br | Pre-emergence action against ORYSA | 0% |

* * *

# Tested on: Echinochloa crus-galli (ECHCG)
# Measurement notes: Post-emergence herbicidal action against ECHCG
# Type: in vivo
# Run conditions: dosage 320 g/ha
# key: entry, value: Post-emergence action against ECHCG in %
Parameter: Post-emergence action against ECHCG in % (%)

| Mol smiles | Parameter | Measured result |
| --- | --- | --- |
| N#CCOC(=O)COc1nn(-c2ncccc2F)c(-c2ccc(F)nc2)c1C1CC1 | Post-emergence action against ECHCG in % | 90 |
| COC(=O)CCOC(=O)COc1nn(-c2ccccn2)c(-c2ccc(F)nc2)c1Br | Post-emergence action against ECHCG in % | 80 |
| COC(=O)COc1nn(-c2ncccc2F)c(-c2cncc(F)c2)c1C1CC1 | Post-emergence action against ECHCG in % | 80 |
| COC(=O)CCOC(=O)COc1nn(-c2cccc(C)n2)c(-c2ccc(F)nc2)c1Cl | Post-emergence action against ECHCG in % | 80 |

* * *

# key: entry, value: Pre-emergence action against AMARE in %
# System: Amaranthus retroflexus (AMARE)
# Measurement notes: Pre-emergence herbicidal action against AMARE
# Assay type: in vivo
# Run conditions: 320 g/ha, visual scoring after about 3 weeks vs untreated controls
Parameter: Pre-emergence action against AMARE in % (%)

| Molecule | Experimental system | Parameter | Measured result |
| --- | --- | --- | --- |
| C[C@@H](Oc1nn(-c2ccccn2)c(-c2cncc(F)c2)c1Br)C(=O)O | Amaranthus retroflexus (AMARE) | Pre-emergence action against AMARE in % | 100 |
| COC(=O)C(C)COC(=O)C(C)Oc1nn(-c2ccccn2)c(-c2ccc(F)nc2)c1Cl (centres unmarked) | Amaranthus retroflexus (AMARE) | Pre-emergence action against AMARE in % | 100 |
| COC(=O)CCOC(=O)[C@@H](C)Oc1nn(-c2ccccn2)c(-c2cncc(F)c2)c1Cl | Amaranthus retroflexus (AMARE) | Pre-emergence action against AMARE in % | 100 |
| COCCOC(=O)COc1nn(-c2ncccc2C(F)(F)F)c(-c2ccc(F)nc2)c1Cl | Amaranthus retroflexus (AMARE) | Pre-emergence action against AMARE in % | 90 |
| CCOC(=O)CSc1nn(-c2ccccn2)c(-c2cncc(F)c2)c1I | Amaranthus retroflexus (AMARE) | Pre-emergence action against AMARE in % | 100 |
| COC(=O)C(C)NC(=O)[C@@H](C)Oc1nn(-c2ccccn2)c(-c2cncc(F)c2)c1Cl (some centres unmarked) | Amaranthus retroflexus (AMARE) | Pre-emergence action against AMARE in % | 100 |
| COC(=O)CCOC(=O)COc1nn(-c2cccc(C)n2)c(-c2ccc(F)nc2)c1Cl | Amaranthus retroflexus (AMARE) | Pre-emergence action against AMARE in % | 90 |
| CCOC(=O)COc1nn(-c2cccc(C)n2)c(-c2ccc(F)nc2)c1Cl | Amaranthus retroflexus (AMARE) | Pre-emergence action against AMARE in % | 90 |
